- SYSTEM: Human PD-L1/PD-1 (Homo sapiens, UniProt Q9NZQ7)
- Construct: TVMV protease cleavage site (C); made in house; host or cells: HEK293T cells
- Sequence (Q9NZQ7 with tags, fused parts or gaps): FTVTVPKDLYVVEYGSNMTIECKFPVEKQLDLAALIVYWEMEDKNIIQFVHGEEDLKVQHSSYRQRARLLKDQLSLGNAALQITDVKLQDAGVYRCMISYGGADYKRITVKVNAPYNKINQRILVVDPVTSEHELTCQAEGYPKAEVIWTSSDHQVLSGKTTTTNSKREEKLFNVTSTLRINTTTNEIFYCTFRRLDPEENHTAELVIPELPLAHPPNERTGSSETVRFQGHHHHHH
- RUN_DESCRIPTION: HTRF Human PD-L1/PD-1 binding assay (PD-1-Ig/PD-L1-His)
- APPLIED_CONDITIONS: PD-L1-His 10 nM, PD-1-Ig 20 nM; class symbol; read-out: HTRF Human PD-L1/PD-1 Binding Assay IC50 Range
pIC50: −log10 of the molar value. Where a SMILES comes first, the peptide text is derived from it. Bridges are numbered along the chain shown (N, C = ends). [ ]: non-standard residue; d: D form. ξ: configuration not given here. Bta = N[C@@H](Cc1csc2ccccc12)C(=O)O; Hyp = O=C(O)[C@@H]1C[C@@H](O)CN1; NMeNle = CCCC[C@H](NC)C(=O)O; hSer = N[C@@H](CCO)C(=O)O; NMeA = CN[C@@H](C)C(=O)O; Orn = NCCC[C@H](N)C(=O)O; ξC = NC(CS)C(=O)O
Measured pIC50 of individual entries

Solved cases (3 shown):
So what's the measured pIC50 for this one? CCCC[C@H]1C(=O)N(C)[C@@H](CCCC)C(=O)N[C@@H](CCCNC(=N)N)C(=O)NC(C(=O)NCC(N)=O)CSCC(=O)N[C@@H](Cc2ccc(O)cc2)C(=O)N(C)[C@@H](C)C(=O)N[C@@H](CC(N)=O)C(=O)N2CCC[C@H]2C(=O)N[C@@H](CO)C(=O)N[C@@H](CO)C(=O)N2C[C@H](O)C[C@H]2C(=O)N[C@@H](Cc2c[nH]c3ccccc23)C(=O)N[C@@H](CO)C(=O)N[C@@H](Cc2c[nH]c3ccccc23)C(=O)N1C (stereo partly shown) [Example 10018] ({CH2CO}-Y[NMeA]NPSS[Hyp]WSW[NMeNle][NMeNle]R[ξC]G-NH2; thioether N-14)
7.00 to 8.00

Record request: pIC50 value, item CCCC[C@H]1C(=O)N(C)[C@@H](C)C(=O)N[C@@H](CCCNC(=N)N)C(=O)NC(C(=O)NCC(N)=O)CSCC(=O)N[C@@H](Cc2ccc(O)cc2)C(=O)N(C)[C@@H](C)C(=O)N[C@@H](CC(N)=O)C(=O)N2CCC[C@H]2C(=O)N[C@@H](Cc2cnc[nH]2)C(=O)N[C@H](CO)C(=O)N2CCC[C@H]2C(=O)N[C@@H](Cc2c[nH]c3ccccc23)C(=O)N[C@@H](CO)C(=O)N[C@@H](Cc2c[nH]c3ccccc23)C(=O)N1C (stereo partly shown) [Example 9117] ({CH2CO}-Y[NMeA]NPH[dS]PWSW[NMeNle][NMeA]R[ξC]G-NH2; thioether N-14)
7.00 to 8.00

// pIC50 lookup, key: CCCC[C@H]1C(=O)N[C@@H](CC(N)=O)C(=O)N2CCC[C@H]2C(=O)N[C@@H](CO)C(=O)N[C@@H](CCO)C(=O)N2C[C@H](O)C[C@H]2C(=O)N[C@@H](Cc2c[nH]c3ccccc23)C(=O)N[C@@H](CCO)C(=O)N[C@@H](Cc2c[nH]c3ccccc23)C(=O)N(C)[C@@H](C)C(=O)N(C)[C@@H](C)C(=O)N[C@@H](CCCCN)C(=O)NC(C(=O)NCC(N)=O)CSCC(=O)N[C@@H](Cc2ccc(O)cc2)C(=O)N1C (stereo partly shown) [Example 10217] ({CH2CO}-Y[NMeNle]NPS[hSer][Hyp]W[hSer]W[NMeA][NMeA]K[ξC]G-NH2; thioether N-14)
5.00 to 6.00

Further cases:
// pIC50 lookup, key: CCCC[C@H]1C(=O)N(C)[C@@H](CCCC)C(=O)N[C@@H](CCCN)C(=O)NC(C(=O)NCC(N)=O)CSCC(=O)N[C@@H](Cc2ccc(O)cc2)C(=O)N(C)[C@@H](C)C(=O)N[C@@H](CC(N)=O)C(=O)N2CCC[C@H]2C(=O)N[C@@H](CC(N)=O)C(=O)N[C@@H](CC(C)C)C(=O)N2C[C@H](O)C[C@H]2C(=O)N[C@@H](Cc2c[nH]c3ccccc23)C(=O)N[C@@H](CO)C(=O)N[C@@H](Cc2csc3ccccc23)C(=O)N1C (stereo partly shown) [Example 9158] ({CH2CO}-Y[NMeA]NPNL[Hyp]WS[Bta][NMeNle][NMeNle][Orn][ξC]G-NH2; thioether N-14)
8.00 to 9.00
